Conditions: in acetone, 283.15 K
Endpoint label: solubility (mole fraction)
Give bare numbers.

Value lookup for solubility (mole fraction); key = O=C(O)C=CC(=O)O.OCCOCCN1CCN(C2=Nc3ccccc3Sc3ccccc32)CC1.OCCOCCN1CCN(C2=Nc3ccccc3Sc3ccccc32)CC1
0.000106

* * *

Details: in acetone, 288.15 K
Endpoint label: solubility (mole fraction)
Give bare numbers.

Value lookup for solubility (mole fraction); key = O=C(O)C=CC(=O)O.OCCOCCN1CCN(C2=Nc3ccccc3Sc3ccccc32)CC1.OCCOCCN1CCN(C2=Nc3ccccc3Sc3ccccc32)CC1
0.000146

* * *

Settings: in n-butanol, 298.15 K
Endpoint label: solubility (mole fraction)
One number for each entry.

Value lookup for solubility (mole fraction); key = O=C(O)C=CC(=O)O.OCCOCCN1CCN(C2=Nc3ccccc3Sc3ccccc32)CC1.OCCOCCN1CCN(C2=Nc3ccccc3Sc3ccccc32)CC1
0.000393

* * *

Conditions: in acetone, 293.15 K
Endpoint label: solubility (mole fraction)
Answers are plain numbers.

Value lookup for solubility (mole fraction); key = O=C(O)C=CC(=O)O.OCCOCCN1CCN(C2=Nc3ccccc3Sc3ccccc32)CC1.OCCOCCN1CCN(C2=Nc3ccccc3Sc3ccccc32)CC1
0.000178

* * *

Conditions: in ethyl acetate, 318.15 K
Endpoint label: solubility (mole fraction)

Value lookup for solubility (mole fraction); key = O=C(O)C=CC(=O)O.OCCOCCN1CCN(C2=Nc3ccccc3Sc3ccccc32)CC1.OCCOCCN1CCN(C2=Nc3ccccc3Sc3ccccc32)CC1
0.000365

* * *

Conditions: in ethyl acetate, 283.15 K
Endpoint label: solubility (mole fraction)

Value lookup for solubility (mole fraction); key = O=C(O)C=CC(=O)O.OCCOCCN1CCN(C2=Nc3ccccc3Sc3ccccc32)CC1.OCCOCCN1CCN(C2=Nc3ccccc3Sc3ccccc32)CC1
8.13e-05

* * *

Conditions: in ethyl acetate, 298.15 K
Endpoint label: solubility (mole fraction)
Numbers only.

Value lookup for solubility (mole fraction); key = O=C(O)C=CC(=O)O.OCCOCCN1CCN(C2=Nc3ccccc3Sc3ccccc32)CC1.OCCOCCN1CCN(C2=Nc3ccccc3Sc3ccccc32)CC1
0.000176

* * *

Conditions: in water, 298.15 K
Endpoint label: solubility (mole fraction)
Numbers only.

Value lookup for solubility (mole fraction); key = O=C(O)C=CC(=O)O.OCCOCCN1CCN(C2=Nc3ccccc3Sc3ccccc32)CC1.OCCOCCN1CCN(C2=Nc3ccccc3Sc3ccccc32)CC1
7.39e-05

* * *

Settings: in DMF, 298.15 K
Endpoint label: solubility (mole fraction)
Numbers only.

Value lookup for solubility (mole fraction); key = O=C(O)C=CC(=O)O.OCCOCCN1CCN(C2=Nc3ccccc3Sc3ccccc32)CC1.OCCOCCN1CCN(C2=Nc3ccccc3Sc3ccccc32)CC1
0.00491

* * *

Details: in water, 283.15 K
Endpoint label: solubility (mole fraction)
One number for each entry.

Value lookup for solubility (mole fraction); key = O=C(O)C=CC(=O)O.OCCOCCN1CCN(C2=Nc3ccccc3Sc3ccccc32)CC1.OCCOCCN1CCN(C2=Nc3ccccc3Sc3ccccc32)CC1
4.98e-05

* * *

Details: in acetone, 323.15 K
Endpoint label: solubility (mole fraction)
Answers are plain numbers.

Value lookup for solubility (mole fraction); key = O=C(O)C=CC(=O)O.OCCOCCN1CCN(C2=Nc3ccccc3Sc3ccccc32)CC1.OCCOCCN1CCN(C2=Nc3ccccc3Sc3ccccc32)CC1
0.000475

* * *

Details: in n-butanol, 283.15 K
Endpoint label: solubility (mole fraction)
Numbers only.

Value lookup for solubility (mole fraction); key = O=C(O)C=CC(=O)O.OCCOCCN1CCN(C2=Nc3ccccc3Sc3ccccc32)CC1.OCCOCCN1CCN(C2=Nc3ccccc3Sc3ccccc32)CC1
0.000154
